Cited source for all entries: patent US20150087627A1

Measured pIC50, listed per entry for reference.
Target or system: mTOR (Homo sapiens)
Construct: purchased Invitrogen
Sequence (P42345 1360-2549 limits assumed): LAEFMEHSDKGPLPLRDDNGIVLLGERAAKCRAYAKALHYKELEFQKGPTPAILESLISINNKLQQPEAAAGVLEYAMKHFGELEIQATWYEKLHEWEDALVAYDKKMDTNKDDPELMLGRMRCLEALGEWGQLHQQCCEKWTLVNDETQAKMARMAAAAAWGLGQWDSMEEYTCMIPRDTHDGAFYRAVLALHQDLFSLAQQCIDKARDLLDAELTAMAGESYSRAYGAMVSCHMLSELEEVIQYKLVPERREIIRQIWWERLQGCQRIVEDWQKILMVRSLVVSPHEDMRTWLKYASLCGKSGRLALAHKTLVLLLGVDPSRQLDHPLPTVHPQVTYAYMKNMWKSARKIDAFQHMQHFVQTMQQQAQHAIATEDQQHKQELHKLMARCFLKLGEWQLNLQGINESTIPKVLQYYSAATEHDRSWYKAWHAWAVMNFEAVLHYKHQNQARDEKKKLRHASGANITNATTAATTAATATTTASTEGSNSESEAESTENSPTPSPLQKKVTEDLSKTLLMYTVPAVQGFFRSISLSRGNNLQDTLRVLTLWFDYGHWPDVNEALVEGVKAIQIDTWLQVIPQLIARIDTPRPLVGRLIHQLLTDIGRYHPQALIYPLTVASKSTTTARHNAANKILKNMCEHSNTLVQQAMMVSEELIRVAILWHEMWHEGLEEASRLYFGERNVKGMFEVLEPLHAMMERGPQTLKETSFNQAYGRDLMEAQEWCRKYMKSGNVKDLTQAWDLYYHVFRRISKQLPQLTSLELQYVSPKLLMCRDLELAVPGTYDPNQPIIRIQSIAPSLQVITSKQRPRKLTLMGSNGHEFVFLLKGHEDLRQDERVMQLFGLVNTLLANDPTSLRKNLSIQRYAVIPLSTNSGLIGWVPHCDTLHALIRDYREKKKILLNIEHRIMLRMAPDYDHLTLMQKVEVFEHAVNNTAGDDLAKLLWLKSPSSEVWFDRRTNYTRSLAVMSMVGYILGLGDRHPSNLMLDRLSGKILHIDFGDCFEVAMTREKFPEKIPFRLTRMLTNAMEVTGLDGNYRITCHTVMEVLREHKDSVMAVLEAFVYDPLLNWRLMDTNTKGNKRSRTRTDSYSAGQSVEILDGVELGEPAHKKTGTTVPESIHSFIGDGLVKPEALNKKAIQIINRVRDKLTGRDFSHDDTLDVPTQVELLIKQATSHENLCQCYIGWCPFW
Protocol text: mTOR kinase inhibition assay (radiometric or LanthaScreen TR-FRET)
Assay type: biochemical
Condition parameters: Table 4 (PI3K α inhibitors); read-out: mTORC IC50
pIC50: −log10 of the molar value.

Give mTOR (Homo sapiens) pIC50 for "CC(C)N1CCN(c2cnc3ccc(-c4ccc5oc(N)nc5c4)nc3c2)CC1"
< 5.00

Query for mTOR (Homo sapiens): what pIC50 does the record show for "C[C@H]1CN(C2CN(c3cnc4ccc(-c5ccc6oc(N)nc6c5)nc4n3)C2)CCN1C" ?
< 5.00

====

Target or system: PI3K γ (p110γ) (Homo sapiens, UniProt P48736)
Construct: purchased Upstate / Millipore Corporation
Sequence (P48736 whole entry): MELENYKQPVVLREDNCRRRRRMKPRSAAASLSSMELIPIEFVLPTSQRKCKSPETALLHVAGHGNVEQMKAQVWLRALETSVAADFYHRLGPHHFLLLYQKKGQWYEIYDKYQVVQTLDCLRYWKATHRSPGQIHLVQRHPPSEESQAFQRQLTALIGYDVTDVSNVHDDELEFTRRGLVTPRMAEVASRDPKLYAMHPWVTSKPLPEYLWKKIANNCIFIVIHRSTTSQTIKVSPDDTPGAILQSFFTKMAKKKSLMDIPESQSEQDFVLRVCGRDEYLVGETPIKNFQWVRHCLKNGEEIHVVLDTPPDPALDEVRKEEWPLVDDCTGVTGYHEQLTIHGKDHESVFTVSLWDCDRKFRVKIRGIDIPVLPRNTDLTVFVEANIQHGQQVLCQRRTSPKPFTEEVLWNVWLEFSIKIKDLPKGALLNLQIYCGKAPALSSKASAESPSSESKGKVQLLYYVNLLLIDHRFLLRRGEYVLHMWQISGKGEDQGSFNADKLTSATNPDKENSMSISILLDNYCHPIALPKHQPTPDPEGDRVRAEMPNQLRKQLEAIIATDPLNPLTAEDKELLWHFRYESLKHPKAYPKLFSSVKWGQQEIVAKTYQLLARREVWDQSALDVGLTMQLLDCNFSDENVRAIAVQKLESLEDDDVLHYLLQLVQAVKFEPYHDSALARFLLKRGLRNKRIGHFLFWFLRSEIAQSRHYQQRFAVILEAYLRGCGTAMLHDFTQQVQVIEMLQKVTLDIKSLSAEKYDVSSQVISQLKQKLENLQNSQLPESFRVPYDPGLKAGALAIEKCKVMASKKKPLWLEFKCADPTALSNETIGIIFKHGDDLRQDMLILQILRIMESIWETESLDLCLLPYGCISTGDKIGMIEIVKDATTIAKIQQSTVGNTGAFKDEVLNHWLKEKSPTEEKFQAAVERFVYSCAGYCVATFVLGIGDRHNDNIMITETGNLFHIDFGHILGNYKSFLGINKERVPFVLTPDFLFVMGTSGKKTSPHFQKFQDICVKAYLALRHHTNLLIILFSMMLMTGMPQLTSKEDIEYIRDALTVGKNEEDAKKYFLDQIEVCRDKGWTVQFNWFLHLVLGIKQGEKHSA
Protocol text: PI 3-Kinase (human) HTRF assay, PI3K γ
Type: biochemical
Condition parameters: Table 4 (PI3K α inhibitors); read-out: PI3K γ IC50
pIC50: −log10 of the molar value.
Listed here: items and their measured pIC50.

C[C@@H]1CN(C2CN(c3cnc4ccc(-c5ccc6oc(N)nc6c5)nc4n3)C2)CCN1
< 5.00
C[C@H]1COCCN1c1cnc2ccc(-c3ccc4oc(N)nc4c3)nc2n1
> 7.00

Suppose we examine the compound "Nc1nc2cc(-c3ccc4ncc(N5CC(N6CCNCC6)C5)nc4n3)ccc2o1" ; what pIC50 value has been reported?
< 5.00
